Each recorded value in this set is attributed to patent US6372752B1.

system: h. Lung; assay: Cell Tox (h. Lung); conditions: h. Lung cells
metric: Cell Tox (h. Lung) (µM)
Use µM as the unit, but write only the number.

O=C(c1ccc2[nH]ccc2c1)N1CCN(C2c3ccccc3-c3ccc([N+](=O)[O-])cc32)CC1 (stereo not shown)
37

Attention now turns to another entry.
Cell Tox (h. Lung) in this record for O=C(c1ccc2[nH]ccc2c1)N1CCN(C2c3ccccc3-c3cc([N+](=O)[O-])ccc32)CC1 (stereo not shown) : 34

---

test system: h. Kidney; assay: Cell Tox (h. Kidney); conditions: h. Kidney cells
metric: Cell Tox (h. Kidney) (µM)
Please respond with the number in µM and leave the unit unwritten.

O=C(c1ccc2[nH]ccc2c1)N1CCN(C2c3ccccc3-c3cc([N+](=O)[O-])ccc32)CC1 (stereo not shown)
29

Next molecule, Cell Tox (h. Kidney) to be filled in.
h. Kidney data for O=C(c1ccc2[nH]ccc2c1)N1CCN(C2c3ccccc3-c3ccc([N+](=O)[O-])cc32)CC1 (stereo not shown) ; its Cell Tox (h. Kidney): 28

---

Measured IC50 by item
tested on: Bacillus Calmet-Guerin (BCG), Pasteur strain, of Mycobacterium bovis; assay: microbe, parasite or virus in culture; format: cell-based; details: Mycobacterium tuberculosis variant bovis BCG, read-out: IC50's for BCG growth
Counter-ions that a name gives are not always drawn.
Give the number first and the unit second.

Some solved cases for reference:
CO[C@H]1/C=C/O[C@@]2(C)Oc3c(C)c(O)c4c(O)c(c(/C=N/N5CCN(C)CC5)c(O)c4c3C2=O)NC(=O)/C(C)=C\C=C\[C@H](C)[C@H](O)[C@@H](C)[C@@H](O)[C@@H](C)[C@H](OC(C)=O)[C@@H]1C [rifampicin]
10 nM
NNC(=O)c1ccncc1 [isoniazid, isonicotinic acid hydrazide]
3000 nM

Bacillus Calmet-Guerin (BCG), Pasteur strain, of Mycobacterium bovis IC50 of CC[C@@H](CO)NCCN[C@@H](CC)CO [ethambutol, ethambutol dihydrochloride] is 10000 nM

---

test system: m. Embryo; assay: Cell Tox (m. Embryo); details: m. Embryo cells
metric: Cell Tox (m. Embryo) (µM)
Numeric only. Scale: µM

O=C(c1ccc2[nH]ccc2c1)N1CCN(C2c3ccccc3-c3cc([N+](=O)[O-])ccc32)CC1 (stereo not shown)
23

Reported Cell Tox (m. Embryo) ( O=C(c1ccc2[nH]ccc2c1)N1CCN(C2c3ccccc3-c3ccc([N+](=O)[O-])cc32)CC1 (stereo not shown) ) = 23

---

target: InhA (Mycobacterium tuberculosis); assay: InhA inhibition assay (NADH consumption, absorbance at 340); format: biochemical
Sequence (P9WGR1 whole entry, looked up): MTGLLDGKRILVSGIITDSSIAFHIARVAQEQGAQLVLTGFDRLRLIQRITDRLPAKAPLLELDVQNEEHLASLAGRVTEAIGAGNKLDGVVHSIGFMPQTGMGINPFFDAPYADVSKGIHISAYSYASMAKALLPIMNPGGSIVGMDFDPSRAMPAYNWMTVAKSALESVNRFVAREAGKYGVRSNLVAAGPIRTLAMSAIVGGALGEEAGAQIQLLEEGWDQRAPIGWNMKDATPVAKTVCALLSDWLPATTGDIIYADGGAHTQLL
Reported values of log10 of IC50 for individual entries
All values: log10 IC50 [µM].

O=C(c1ccc2[nH]ccc2c1)N1CCN(c2cccc(Cl)c2)CC1 [Compound 58]
0.08
O=C(c1ccc2[nH]ccc2c1)N1CCN(c2cccc(C(F)(F)F)c2)CC1 [Compound 59]
0.28
O=C(c1ccc2[nH]ccc2c1)N1CCN(c2ccc(Cl)cc2)CC1 [Compound 56]
0.62

Reported log10 of IC50 for CCCC(=O)C1(c2ccccc2)CCN(C(=O)c2ccc3[nH]ccc3c2)CC1 [Compound 4] was -0.64

The measured log10 of IC50 associated with Cc1ccc(Cl)cc1N1CCN(C(=O)c2ccc3[nH]ccc3c2)CC1 [Compound 57] reads 0.02

---

// reported pIC50 for each item listed
molecular target: UniProt:P9WGR1; assay: InhA inhibition assay (NADH consumption, absorbance at 340); assay type: biochemical; settings: Table 9; read-out: InhA IC-50
Conceptually, pIC50 converts a concentration in mol/L into minus its log10.

O=C(c1ccc2[nH]ccc2c1)N1CCN(C2c3ccccc3-c3cc([N+](=O)[O-])ccc32)CC1 (stereo not drawn)
6.89
O=C(c1ccc2[nH]ccc2c1)N1CCN(C2c3ccccc3-c3ccc([N+](=O)[O-])cc32)CC1 (stereo not drawn)
6.92

Let us examine a further case.
Result for O=C(c1ccc2[nH]ccc2c1)N1CCN(C2c3cc(Br)ccc3-c3ccc(Br)cc32)CC1 , tested on UniProt:P9WGR1, pIC50: 6.92
